# Tested on: MDA−MB−231 cells
# measurement.protocol: Western blot protein expression
# Type: cell-based
# experimental.context: MDA−MB−231, IC50, 72 h, representative blot Figure S25A
# key: entry, value: p-AKT/AKT/GAPDH normalized to control (1)
endpoint.name: p-AKT/AKT/GAPDH normalized to control (1)

{"columns": ["chem.smiles", "test.target", "result.value"],
 "data": [
  ["N[C@H]1CCCC[C@@H]1N.O=[N+]([O-])[O-].O=[N+]([O-])[O-].[Pt+2].c1cnc2c(c1)ccc1cccnc12", "MDA−MB−231 cells", 0.6042],
  ["Cc1cc2cccnc2c2ncccc12.N[C@H]1CCCC[C@@H]1N.O=[N+]([O-])[O-].O=[N+]([O-])[O-].[Pt+2]", "MDA−MB−231 cells", 0.5388],
  ["Cc1c(C)c2cccnc2c2ncccc12.N[C@H]1CCCC[C@@H]1N.O=[N+]([O-])[O-].O=[N+]([O-])[O-].[Pt+2]", "MDA−MB−231 cells", 0.5229]
]}

All values here come from paper PMC11274883.
